// provenance: patent US10358449B2

# target-under-test: CYP2D6 (Homo sapiens (Human))
# Sequence (P10635 whole entry): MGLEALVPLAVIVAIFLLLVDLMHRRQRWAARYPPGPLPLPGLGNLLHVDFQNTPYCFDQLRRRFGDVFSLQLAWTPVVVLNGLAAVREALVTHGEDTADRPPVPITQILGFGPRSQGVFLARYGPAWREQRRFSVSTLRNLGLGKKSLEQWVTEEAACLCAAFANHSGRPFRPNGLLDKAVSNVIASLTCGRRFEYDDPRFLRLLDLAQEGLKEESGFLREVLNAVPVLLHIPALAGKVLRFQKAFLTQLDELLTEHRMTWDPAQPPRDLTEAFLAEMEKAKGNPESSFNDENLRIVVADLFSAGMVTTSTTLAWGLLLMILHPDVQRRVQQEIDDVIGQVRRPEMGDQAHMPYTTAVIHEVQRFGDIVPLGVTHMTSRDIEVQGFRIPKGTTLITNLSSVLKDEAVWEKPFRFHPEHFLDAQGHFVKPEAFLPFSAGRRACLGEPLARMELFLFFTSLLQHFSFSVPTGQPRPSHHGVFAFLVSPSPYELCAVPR
# method-summary: in vitro
# Assay type: in vitro ADME
# conditions-used: human, microsomes
attribute-measured: inhibition at 0.5 µM
The reply must contain the numeric value and, after it, the unit.

query: Which inhibition at 0.5 µM is listed for CC#CCn1c(N2CCC[C@@H](N)C2)nc2c1c(=O)n(Cc1nccnc1C#N)c(=O)n2C ?
result: 0%

---

# method-summary: Pharmacokinetics experiments in CD-1 mice
# Assay type: in vivo, mouse
# conditions-used: CD-1, mouse, plasma, po; gavage 5 mg/kg; read-out: MRT0-last
attribute-measured: MRT last (h)
Value expressed in h; do not type the unit.

query: Which MRT last is listed for CC#CCn1c(N2CCC[C@@H](N)C2)nc2c1c(=O)n(Cc1nccnc1C#N)c(=O)n2C ?
result: 2.87
